src = PubChem BioAssay (NCI)

# Test system: UACC-62 melanoma
# measurement description: NCI tumour cell line growth inhibition, 48 h; in the data active means GI50 below about 0.43 µM; inactive means the rest
Give your call using only these classes: class 1 for active, class 0 for inactive

Lab log entry: CCc1ccc(Oc2c(-c3ccc(OCc4ccc(Cl)cc4)cc3O)nn(C)c2C(F)(F)F)cc1 — outcome as called in the assay?
class 0

New cases:
Please share the test call associated with Nc1nc(Cl)c2ncn(Cc3ccc(C45CC6CC(CC(C6)C4)C5)c(OCc4cc(F)c(F)cc4F)c3)c2n1 .
class 0

Which outcome did this test record for the molecule N#Cc1cc(F)cc(Oc2ccc(S(=O)(=O)C(F)F)c3c2CC(F)(F)[C@H]3O)c1 ?
class 0

Tell me the recorded outcome of this test for C#COc1cccc(Nc2ncnc3cc(NC(=O)[C@@H](C)Cl)ccc23)c1 .
class 0

Could you please tell me the result logged for CCN1C(=O)N(CC)C2C1NC(=S)N2/N=C/C=C/c1ccccc1 (centres undefined) in this assay?
class 1

Record lookup: outcome of this test for O=C(Nc1nc2ccc(S(=O)(=O)Nc3ccc(C4(C(F)(F)F)CC4)cc3)cc2[nH]1)c1cnccn1 ?
class 0

Which outcome was entered for the molecule CN(C)C1C(=O)C(C(N)=O)=C(O)C2(O)C(=O)C3=C(O)c4c(O)cccc4C(C)(O)C3CC12.[Cl][Sb]([Cl])[Cl] (centres undefined) in this test?
class 0

Tell me the assay call for COC(=O)c1ccc(NC(N)=NCCC(C)(C)c2ccc(C(F)(F)F)cc2)nc1 please.
class 0

For this molecule, state the assay outcome: O=c1[nH]c2ccccc2cc1-c1nnc(Cc2ccccc2)o1
class 0

---

# Test system: OVCAR-3 ovarian
# measurement description: NCI tumour cell line growth inhibition, 48 h
quantity name: TGI

Dear colleague, I am looking for the recorded TGI of the following compound: CCOC(=O)CNC(=O)c1[nH]cnc1/N=N/N(C)C
> 100 µM

Would you mind telling me what TGI value was observed for CN(C)c1cccc2c(S(=O)(=O)NCCN)cccc12 ?
> 100 µM

Give the measured TGI of CC(=O)Oc1cc2c(cc1OCC(F)(F)F)[C@H]1CC[C@]3(C)[C@@H](OC(C)=O)CC[C@H]3[C@@H]1CC2=O .
45.6 µM

API: the following record is the query input.
// lookup TGI for CN(C)CCNC(=O)Nc1ccc(N(C)c2ccnc(Nc3ccc(CS(C)(=O)=O)cc3)n2)cc1
> 25 µM

---

Recorded TGI for the following compounds
# Test system: SK-OV-3 ovarian
# measurement description: NCI tumour cell line growth inhibition, 48 h

Find the recorded TGI belonging to CN(Cc1cnc2nc(N)nc(N)c2n1)c1ccc(C(=O)NC(CCC(=O)O)C(=O)O)c2ccccc12 (stereo not given) and report it.
> 1000 µM

Suppose we examine the compound CCOC(=O)c1cn(C)c2c(OC)c3ccccc3c(OC)c2c1=O ; what TGI value has been reported?
> 100 µM

What measured TGI goes with Oc1cn(-c2ccc(Cl)cc2)nc1-c1n[nH]c(=S)n1-c1ccc(F)cc1 ?
> 100 µM

Continuing:
Consider the compound O=[N+]([O-])/C=C/c1cc(Cl)c(/C=C/[N+](=O)[O-])cc1Cl and give its measured TGI.
> 56.6 µM

Entry under review: CCOC(=O)C1=C(C)N(NC(N)=O)C2(N)N(NC(N)=O)C(C)=C(C(=O)OCC)C12C#N (stereo not given) . Reported TGI?
> 100 µM
